B1: TRIM63 (parent)
chain: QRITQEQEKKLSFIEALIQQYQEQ

variants of: B1; experiment: protein stability index of a GFP-peptide fusion (GPS, HEK-293T) (PSI 1-6); higher = more stable; conditions: c terminus: a fixed tail appended;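 further: lentivirally expressed fusions sorted by FACS into six bins by GFP to DsRed ratio, PSI derived from sequencing read proportions per bin multiplied by bin number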
# maps each entry to its protein stability index
Please reply with the number alone, leaving off any unit.

As a guide, the following entries are already answered.
I3N; 2.48
T4M; 2.7
F13M; 3.25
E15G; 2.44

query: So what does the record say about protein stability index for E8D ?
result: 1.95

query: Consider next the variant S12W in the same way.
result: 1.57

query: Consider next the variant L11S in the same way.
result: 2.63
